Assay text: Microsomal Stability Assay, mouse liver microsomes
Assay type: in vitro ADME
Protocol conditions: mouse liver microsomes, 60 min; Example 11

| Compound | Microsomal Stability Mouse % rem. 60 min |
| --- | --- |
| CN(C)C(=O)COc1cnc(N[C@H]2CC[C@@H](Oc3nc(N4CCOCC4)cc4ncc(O)cc34)CC2)nc1 [LFA113] | F (% remaining = 25-50%) |
| CN(C)C(=O)COc1cnc(N[C@H]2CC[C@@H](Oc3nc(N4CCOCC4)cc4ncc(N)cc34)CC2)nc1 [LFA111] | F (% remaining = 25-50%) |

----------
Assay text: Pharmacokinetic study in mice (IV and PO), plasma
Format: in vivo, mouse
Protocol conditions: female, C57BL/6; mouse plasma, IV, 1 mg/kg
Measured metric: half-life (h)
One number for each entry, in h.

Query: half-life; subject: CN(C)C(=O)COc1cnc(N[C@H]2CC[C@@H](Oc3nc(N4CCOCC4)cc4ncccc34)CC2)nc1 [Compound 54] 1.69
